System: U251 CNS
Assay: NCI tumour cell line growth inhibition, 48 h
For each of the compounds below, state its TGI.

Completed entries (count: 6):
NNC(=O)CC(=O)Nc1cccc(Cl)c1 | > 100 µM
N#CC(C(=O)C(=O)Nc1ccccc1)c1ccccc1 (stereo not drawn) | > 100 µM
CCOC(=O)C(NC(=O)c1ccccc1)(Nc1ccc(S(=O)(=O)Nc2ncccn2)cc1)C(F)(F)F (stereo not drawn) | > 100 µM
CC1(C)S[C@@H]2[C@H](N3C(=O)c4ccccc4C3=O)CN2[C@H]1NC(=O)N[C@@H]1N2C[C@@H](N3C(=O)c4ccccc4C3=O)[C@H]2SC1(C)C | 58.5 µM
COc1ccc(C=Nc2c(C(=O)Nc3cccc(Cl)c3C)sc3nc(C)c(C(=O)/C=C/c4ccc(OC)cc4)cc23)cc1 | 18.4 µM
CCOC(=O)/C=C(\C(=O)OCC)n1ccc(=O)n(Cc2cnnn2CCCCOC(C)=O)c1=O | > 59.3 µM

// for each compound in input: emit TGI
1. COC(=O)N1CC(=O)C(C(=O)NC23CC4CC(CC(C4)C2)C3)C1 (stereo not drawn)
2. Oc1ccc([C@H]2c3c(O)cc(O)cc3C3c4c(cc(O)cc4[C@@H]2[C@H]2c4cc(O)cc5c4C(c4cc(O)cc(O)c4[C@@H]2c2ccc(O)cc2)[C@@H](c2ccc(O)cc2)O5)O[C@@H]3c2ccc(O)cc2)cc1 (stereo partly drawn)

["> 100 µM", "> 100 µM"]

---

System: KM20L2 colon
Assay: NCI tumour cell line growth inhibition, 48 h
For each of the compounds below, state its TGI.

// for each compound in input: emit TGI
1. O=C(Nc1ccc(Cl)cc1C(F)(F)F)C(=O)C1CCCS1(=O)=O (stereo not given)
2. CCOC(=O)C(=O)C=P(c1ccccc1)(c1ccccc1)c1ccccc1

> 100 µM
> 100 µM

// for each compound in input: emit TGI
1. CC(=O)OCC1OC(n2ccc(=O)[nH]c2=O)C(OC(C)=O)C(OC(C)=O)C1OC(C)=O (stereo not given)
2. CO[C@@H]1C=C[C@@]23c4cc5c(cc4CN(C[C@@H]2O)[C@H]3C1)OCO5
3. O=C(Cc1ccccc1F)NC1=C(Cl)C(=O)c2ccccc2C1=O
4. COC(=O)c1cc(C(=O)OC)c(CC(=O)C(=O)NC2C3CC4CC(C3)CC2C4)nc1CC(=O)C(=O)NC1C2CC3CC(C2)CC1C3 (stereo not given)
5. N.N.N.N.N.NC(=O)[O-].[Co+3].[I-]
6. COc1c(C)cc2c(C(C)C)c(O)c(O)c(C=O)c2c1O
7. O=C(/C=C\c1cccc2ccccc12)c1ccc(F)cc1

1: > 100 µM; 2: > 100 µM; 3: 29.8 µM; 4: > 100 µM; 5: > 100 µM; 6: 88.1 µM; 7: 31.1 µM

Tell me measured TGI for `C=CCN1/C(=C(\C#N)c2nc3ccccc3[nH]2)Sc2c1nc[nH]c2=O` please. > 100 µM

---

Tested on: SF-268 CNS
Test: NCI tumour cell line growth inhibition, 48 h
For each of the compounds below, state its TGI.

Completed entries (count: 5):
O=C1/C=C/[C@@H](O)[C@@H]2C[C@@H](O)C[C@H]2/C=C/CCC[C@H](CCc2cccc3ccccc23)O1 | 12.3 µM
O=C(Nc1ccc(Cc2ccccc2)cc1)Nc1nn(C(=O)Nc2ccc(Cc3ccccc3)cc2)c2ccccc12 | > 100 µM
COc1cc(OC)cc(-c2ccc(-c3ccc(C(=N)N)cn3)o2)c1 | 3.62 µM
Cc1[nH]c(=O)[nH]c(=O)c1/C=C/C(=O)O (tested in a mixture with another compound) | > 625 µM
CCC(=O)N1C(=O)OCC1C(C)C (stereo not given) | > 100 µM

// for each compound in input: emit TGI
1. C=C(CN1CCN(c2ccc(C(F)(F)F)cc2)CC1)c1ccc(C(=O)Nc2ccccc2N)cc1
2. O=C(/C=C/c1ccc(Cl)cc1)c1ccccc(=O)c1O
3. CCCCN1CCCC[C@@H]1C(=O)N[C@H](C(=O)N(C)[C@H](C[C@@H](OC(C)=O)c1nc(C(=O)NC2CCC(C(=O)OC)CC2)cs1)C(C)C)C(C)C (stereo not given in full)

1: > 100 µM; 2: 36.2 µM; 3: > 25 µM
